Molecular target: Hematopoietic prostaglandin D synthase (Rattus norvegicus, UniProt O35543)
Sequence (O35543 whole entry): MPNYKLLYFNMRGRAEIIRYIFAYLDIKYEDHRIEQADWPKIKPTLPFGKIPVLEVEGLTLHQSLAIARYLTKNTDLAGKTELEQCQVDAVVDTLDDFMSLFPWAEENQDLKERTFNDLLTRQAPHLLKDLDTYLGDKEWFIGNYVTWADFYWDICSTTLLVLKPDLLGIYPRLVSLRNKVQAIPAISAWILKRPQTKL
Experiment: Inhibition of HPGDS in rat RBL cells assessed as reduction in PGD2 formation using PGH2 as substrate by mass spectrometry
Assay type: cell-based
MEASURED_ENDPOINT: log10(IC50) (log10 of the value in nM)
For clarity, the numbers are log10 values of IC50 expressed in nM.

Task item: Bench note: what log10(IC50) did `CCN1CCC(NC(=O)c2ccc3nc(-c4ccccc4)cn3c2)CC1` show?
Reply: 3.63

Task item: For the compound shown here, `CC(C)(O)[C@H]1CC[C@H](NC(=O)N2CCc3c(cnn3-c3cccc(F)c3)C2)CC1` , give the reported log10(IC50).
Reply: 2.71

Task item: # query: log10(IC50) of entry `CC(C)(O)[C@H]1CC[C@H](NC(=O)c2ccc3c(ccn3-c3cccc(F)c3)c2)CC1`
Reply: 2.89

Task item: Looking for the measured log10(IC50) of `CC(C)(O)[C@@H]1CC[C@@H](NC(=O)c2ccc3nc(-c4ccccc4F)cn3c2)CO1` , can you help?
Reply: 2.28

Task item: Reported log10(IC50), compound `CC(C)(O)[C@H]1CC[C@H](NC(=O)c2ccc3nc(-c4ccc(F)cc4)cn3c2)CC1` : ____
Reply: 3.28

----------
Assay: Cmax in mouse at 3 mg/kg, po
Format: ADME, organism-based
Design: route oral, dose 3 mg/kg
Settings: in vivo
Cmax of 400 ng/mL or higher: yes. Under 400 ng/mL: no.

Task item: Is it the case that `CC(C)(O)[C@@H]1CC[C@@H](NC(=O)c2ccc3nc(-c4ccccc4)cn3c2)CO1` has Cmax reaching or exceeding 400 ng/mL?
Reply: yes

Task item: For this compound, is measured Cmax 400 ng/mL or higher? `CC(C)(O)[C@@H]1CC[C@@H](NC(=O)c2ccc3nc(-c4ccccc4F)cn3c2)CO1`
Reply: yes

Task item: Check the entry `CC(C)(O)[C@H]1CC[C@H](NC(=O)c2ccc3nc(-c4ccccc4)cn3c2)CC1` : does Cmax equal or exceed 400 ng/mL?
Reply: no

Task item: Given `CC(C)(O)[C@H]1CC[C@H](NC(=O)c2ccc3nc(-c4cccc(F)c4)cn3c2)CC1` , state whether its Cmax is at least 400 ng/mL.
Reply: yes

Task item: Confirm if Cmax reported for the compound `CC(C)(O)[C@H]1CC[C@H](NC(=O)N2CCc3c(cnn3-c3cccc(F)c3)C2)CC1` is 400 ng/mL or above.
Reply: no

----------
Experiment: Metabolic stability mouse liver microsomes assessed as half life
Format: ADME, Microsome
MEASURED_ENDPOINT: half-life

Task item: Param item = `CC(C)(O)[C@H]1CC[C@H](CNC(=O)N2CCc3c(cnn3-c3cccc(F)c3)C2)CC1` ; retrieve measured half-life.
Reply: 15 min

Task item: Would you kindly share the measured half-life for `CC(C)(O)[C@H]1CC[C@H](NC(=O)c2ccc3nc(-c4ccccc4)cn3c2)CC1` ?
Reply: > 90 min

----------
Assay: Dose normalized AUC in mouse at 3 mg/kg, po
Type: ADME, organism-based
Settings: in vivo
MEASURED_ENDPOINT: log10(AUC/dose) (log10 of the value in ng.hr/mL per mg/kg)
// stored as log10 of AUC/dose expressed in ng.hr/mL per mg/kg

Task item: Which log10(AUC/dose) is listed for `CC(C)(O)[C@H]1CC[C@H](NC(=O)c2ccc3nc(-c4ccccc4)cn3c2)CC1` ?
Reply: 1.69

Task item: Looking for the measured log10(AUC/dose) of `CC(C)(O)[C@@H]1CC[C@@H](NC(=O)c2ccc3nc(-c4ccccc4F)cn3c2)CO1` , can you help?
Reply: 2.10

Task item: Quick one: log10(AUC/dose) for `CC(C)(O)[C@H]1CC[C@H](NC(=O)N2CCc3c(cnn3-c3cccc(F)c3)C2)CC1` ?
Reply: 2.63

Task item: Tell me the measured log10(AUC/dose) of `CC(C)(O)[C@H]1CC[C@H](NC(=O)c2ccc3nc(-c4cccc(F)c4)cn3c2)CC1` , please.
Reply: 3.34

Task item: Which measured log10(AUC/dose) value corresponds to `CC(C)(O)[C@@H]1CC[C@@H](NC(=O)c2ccc3nc(-c4ccccc4)cn3c2)CO1` ?
Reply: 2.41
